tested on: DU-145 prostate; assay: NCI tumour cell line growth inhibition, 48 h; in the data active means GI50 below about 0.43 µM; inactive means the rest
Choose the fitting class; nothing outside active, inactive is accepted.

Past entries and their recorded results:
N[C@@H](CSSC[C@H](N)C(=O)N1CCn2cc(-c3ccccc3)nc2[C@@H]1CC1CCCCC1)C(=O)N1CCn2cc(-c3ccccc3)nc2[C@@H]1CC1CCCCC1; inactive
COc1c2ccccc2c(O)c2c(=O)ccn(C)c12; inactive

Tell me the assay call for CC(=O)C(C=O)C(C)=O.CC(=O)CC(C)=O.CC(=O)CC(C)=O.[Ru] please.
inactive

Tell me the assay call for Cc1cc(N)cc(C)c1-c1c(Br)cc(N)cc1Br please.
inactive

Tell me the assay call for O=C1NC(=N[C@H](CO)c2ccccc2)S/C1=C\c1ccc2ncccc2c1 please.
inactive

Tell me the assay call for COc1ccc2c(c1)C(=O)c1c-2c(N2CCN(C(=O)CCNCCNCCO)CC2)nc2ccccc12 please.
inactive

Data origin: PubChem BioAssay (NCI)
